Tested on: LOX IMVI melanoma
Measurement Description: NCI tumour cell line growth inhibition, 48 h
Assign TGI to each entry below.

molecule="Fc1cccc(F)c1C1SCC2=Nc3ccccc3CN21 (stereo not drawn)" reported_metric=TGI value="> 100 µM"
molecule=CC(=O)[CH-]C(=O)c1ccccc1.CC(=O)[CH-]C(=O)c1ccccc1.[Nd+3].[OH-].[OH3+] reported_metric=TGI value="> 100 µM"
molecule=Cc1cccc(C)c1NC(=O)CCC(=O)NNC(=O)c1cc(O)c2ccccc2c1 reported_metric=TGI value="> 100 µM"

I would be grateful if you could provide TGI for each of the following entries.
1. CCOc1ncn(-c2ccc(NC(=S)Nc3cccc(O)c3)cc2)n1
2. CCc1nc2c(O)ccc(O)c2nc1C
3. Cc1nc2sc(C(=O)Nc3cccc4ccccc34)c(N)c2cc1C(C)O (stereo not drawn)
4. N#CC(c1ccc(O)cc1)N1CCN(C(C#N)c2ccc(O)cc2)CC1 (stereo not drawn)
5. c1ccc2c(c1)O[As](O[As]1Oc3ccccc3O1)O2

> 100 µM
29.9 µM
> 50 µM
> 100 µM
10.3 µM

----------
Assign TGI to each entry below.
System: MDA-MB-435
Measurement Description: NCI tumour cell line growth inhibition, 48 h
Where a SMILES comes first, the peptide text is derived from it. [ ]: non-standard residue; d: D form. The star is where a group is joined. ξ: configuration not given here. X16 = COC1=CC(=O)N(C(=O)C(O*)C(C)C)C1Cc1ccccc1; ξNMe2Val = CC(C)C(C(=O)*)N(C)C; NMeV = CN[CH](C(=O)O)C(C)C

Worked cases, TGI given:
molecule=c1ccc(COc2ccc(C[P+](c3ccccc3)(c3ccccc3)c3ccccc3)cc2)cc1 system_tested=MDA-MB-435 reported_metric=TGI value="1.7 µM"
molecule=COc1ccc(NC(=S)NN=C(C)c2cccc(C(C)=NNC(=S)Nc3ccc(OC)cc3)n2)cc1 system_tested=MDA-MB-435 reported_metric=TGI value="> 100 µM"

I would be grateful if you could provide TGI for each of the following entries.
1. CCOC(=O)C(NCc1ccccc1)(NC(=O)c1ccccc1)C(F)(F)F (centres undefined)
2. COC1=CC(=O)N(C(=O)C(OC(=O)C2CCCN2C(=O)C2CCCN2C(=O)C(C(C)C)N(C)C(=O)C(NC(=O)C(C(C)C)N(C)C)C(C)C)C(C)C)C1Cc1ccccc1 (centres undefined) (ξNMe2Val-V[NMeV]PP-X16; configuration not given here)
3. CC12CC3c4ccccc4CN1C3(c1ccccc1)OC2=O (centres undefined)
4. COC(=O)C1Cc2c(C)cccc2C1=O (centres undefined)

> 100 µM
0.000576 µM
> 100 µM
> 100 µM

I would be grateful if you could provide TGI for each of the following entries.
1. Cc1oc2ccccc2c(=O)c1Cn1nnc2ccccc21
2. O=C1CC(NC(=O)C(F)(F)F)c2c(Br)sc(N3CCC(c4ccccc4)CC3)c21 (centres undefined)
3. CC1(C)CCC(S(=O)(=O)c2ccc3c(c2)/C(=N\O)c2cc(S(=O)(=O)N4CCC(O)(c5cccc(C(F)(F)F)c5)CC4)ccc2-3)CC1

["> 100 µM", "> 100 µM", "0.122 µM"]

----------
Assign TGI to each entry below.
System: U251 CNS
Measurement Description: NCI tumour cell line growth inhibition, 48 h

Worked cases, TGI given:
compound=CCOC(=O)c1cc2cc(Cc3ccc4[nH]c(C(=O)OCC)cc4c3)ccc2[nH]1 reported_metric=TGI value="29.9 µM"
compound="COc1ccc2c(c1)Oc1nc(N)c(C#N)c(N)c1C2Sc1ccc(SC)cc1 (stereo not given)" reported_metric=TGI value="3.19 µM"
compound="COc1ccc(C2CC(c3cc4c(C)c(C(=O)c5ccccc5)oc4cc3O)=Nc3ccccc3S2)cc1OC (stereo not given)" reported_metric=TGI value="> 100 µM"
compound=COc1ccc2c(c1)C(=O)c1c-2c(NCCCN(C)C)nc2ccccc12 reported_metric=TGI value="4.42 µM"

Now examine the next entry.
GET /values?readout=TGI&item= CCOC(=O)c1nc2c3c(ncn2n1)Oc1c(c(-c2ccccc2)nn1-c1ccccc1)C3c1ccc(OC)c(OC)c1 (stereo not given) > 100 µM

----------
System: HL-60(TB) leukemia
Measurement Description: NCI tumour cell line growth inhibition, 48 h; in the data active = GI50 below about 0.43 µM; inactive = the rest
Your answer must be one of the following: t for active, f for inactive

compound=COc1ccc2c(c1)C(=O)c1c-2c(NCCCN(C)C)nc2ccccc12 system_tested="HL-60(TB) leukemia" answer_label=f
compound=CCCOC(=O)N[C@H]1CCc2c(Br)c(OC)c(OC)c(OC)c2-c2ccc(SC)c(=O)cc21 system_tested="HL-60(TB) leukemia" answer_label=t
compound=C=C1C(=O)O[C@H]2[C@H]1CC/C(COC(=O)OCCCCCOC(=O)OC/C1=C/CC[C@@]3(C)O[C@H]3[C@H]3OC(=O)C(=C)[C@@H]3CC1)=C\CC[C@@]1(C)O[C@@H]21 system_tested="HL-60(TB) leukemia" answer_label=t
compound="OCC(O)CC[CH2][Sn]([c]1ccccc1)([c]1ccccc1)[c]1ccccc1 (configuration not stated)" system_tested="HL-60(TB) leukemia" answer_label=f
compound=CC(=O)[CH-]C(=O)c1ccccc1.CC(=O)[CH-]C(=O)c1ccccc1.[Nd+3].[OH-].[OH3+] system_tested="HL-60(TB) leukemia" answer_label=f
compound=O=C(Cn1ccnc1[N+](=O)[O-])N(CCO)CCO system_tested="HL-60(TB) leukemia" answer_label=f
compound=[Cu+2].[Cu+2].[O-]c1ccccc1C=Nc1ccccc1[O-].[O-]c1ccccc1C=Nc1ccccc1[O-] system_tested="HL-60(TB) leukemia" answer_label=f
compound=Brc1c[n+](Cc2ccc3ccccc3c2)cn1Cc1ccc2ccccc2c1 system_tested="HL-60(TB) leukemia" answer_label=f
compound=CCOc1ccc(NC(=O)Nc2cc(C(C)C)ccc2C)cc1 system_tested="HL-60(TB) leukemia" answer_label=f
compound="C[C@@H]1O[C@@H](O[C@H]2C[C@@H](O)[C@]3(CO)C4C(CC[C@]3(O)C2)[C@@]2(O)CC[C@H](C3=CC(=O)OC3)[C@@]2(C)C[C@H]4O)[C@H](O)[C@H](O)[C@H]1O (some centres not stated)" system_tested="HL-60(TB) leukemia" answer_label=t

Call for entry `COc1ccc2c(c1)O/C(=C\c1cccc(OCC(=O)Nc3nc4ccccc4s3)c1)C2=O` : f

Call for entry `CO/N=C(\c1ccccc1)c1cnn(-c2ccccc2)c1N` : f

----------
System: SN12C renal
Measurement Description: NCI tumour cell line growth inhibition, 48 h
Assign TGI to each entry below.

Worked cases, TGI given:
chemical_structure=CN(NC(=O)c1ccco1)C1=NCCCCN1 reported_metric=TGI value="> 100 µM"
chemical_structure=N#Cc1[nH]c(=O)n(-c2ccc([N+](=O)[O-])cc2)c1N reported_metric=TGI value="> 10 µM"
chemical_structure=COc1ccc(CC(=O)c2cc(OC)c(OC)cc2C)cc1OC reported_metric=TGI value="> 100 µM"
chemical_structure=CO/C(=N\N=C(/C)C(F)(F)F)c1ccncc1 reported_metric=TGI value="> 100 µM"
chemical_structure=Oc1c(Cl)c2nccnc2c2ccccc12 reported_metric=TGI value="> 100 µM"

What measured TGI is associated with `Cn1ncc2c(Nc3ccc(Br)cc3)nc(Nc3ccc(Br)cc3)nc21` on SN12C renal? 12.9 µM

----------
Tested on: SF-268 CNS
Measurement Description: NCI tumour cell line growth inhibition, 48 h
Reported Metric: TGI

Worked cases, TGI given:
molecule="C=CC1CC12C(=O)C1OC2(C)C2C(=O)c3ccccc3C(=O)C12 (stereo not given)" reported_metric=TGI value="> 92.5 µM"
molecule=CCc1nc2c(O)ccc(O)c2nc1C reported_metric=TGI value="34.2 µM"
molecule=O=C(C=P(c1ccccc1)(c1ccccc1)c1ccccc1)C12CC3CC(CC(C3)C1)C2 reported_metric=TGI value="41.6 µM"
molecule=CCOC(=O)c1cc2cc(Cc3ccc4[nH]c(C(=O)OCC)cc4c3)ccc2[nH]1 reported_metric=TGI value="38.5 µM"
molecule=COc1c2cc(C(C)(C)C)cc1CSCc1cc(C(C)(C)C)cc(c1OC)CCCCC2 reported_metric=TGI value="> 50 µM"
molecule="CN(C)CCC1(C2=CCCC2)CC/C(=C\\c2ccc3c(c2)OCO3)C1=O (stereo not given)" reported_metric=TGI value="28.1 µM"

I would be grateful if you could provide TGI for each of the following entries.
1. CC(=O)N[C@@H](Cc1ccc(O)cn1)C(=O)NCc1cccc(F)c1
2. COc1cc(OC)c(-c2cc(=O)c3c(OC)c(OC)c(OC)c(OC)c3o2)cc1OC

1. > 100 µM
2. > 100 µM

I would be grateful if you could provide TGI for each of the following entries.
1. COC(=O)c1cnc2nc(N3CCOCC3)[nH]n2c1=O
2. COc1ccc(C2CC(c3cc4c(C)c(C(=O)c5ccccc5)oc4cc3O)=Nc3ccccc3S2)cc1OC (stereo not given)
3. COc1cc(OC)cc(N2CCC(c3c(N)nc(N)nc3Cl)CC2)c1
4. CCCOC(=O)N[C@H]1CCc2c(Br)c(OC)c(OC)c(OC)c2-c2ccc(SC)c(=O)cc21
5. COc1ccc(-c2cc3cccc(OC)c3c(=O)o2)cc1OC
6. CN(C)[C@@H]1C(=O)C(C(N)=O)=C(O)[C@@]2(O)C(=O)C3=C(O)c4c(O)cccc4C[C@H]3C[C@@H]12
7. O=C1CC(NC(=O)C(F)(F)F)c2c(Br)sc(N3CCC(c4ccccc4)CC3)c21 (stereo not given)

["> 100 µM", "> 100 µM", "> 100 µM", "17.8 µM", "> 100 µM", "3.23 µM", "> 100 µM"]
